- Test system: RXF 393
- assay notes: NCI tumour cell line growth inhibition, 48 h
Calls of active or inactive are those of the source. No stated cut-off is given here; in the data, active = GI50 up to about 1.1 µM and inactive = higher.

# molecule, target under test, GI50
rows = [
    ("COc1ccc(C(=O)Cc2ccc(Cl)cc2)cc1OC", "RXF 393", "> 100 µM (inactive)"),
    ("c1ccc2nn(C3CCCO3)nc2c1 (stereo not drawn)", "RXF 393", "> 100 µM (inactive)"),
    ("O=C(COc1ccc(OCC(=O)N/N=C/c2ccc(-c3ccc(Cl)cc3Cl)o2)c(Cl)c1)N/N=C/c1ccc(-c2ccc(Cl)cc2Cl)o1", "RXF 393", "33.6 µM (inactive)"),
    ("O=C1CSC(c2c(O)ccc3ccccc23)N1n1c(S)nnc(/C=C/c2c(O)ccc3ccccc23)c1=O (stereo not drawn)", "RXF 393", "1.45 µM (inactive)"),
    ("Cc1cccc2nc3c(C(=O)NCCN(C)C)cccc3cc12", "RXF 393", "1.45 µM (inactive)"),
    ("O=C1NCN(c2ccccc2)C12CCN(CCCSc1ccc(F)cc1)CC2", "RXF 393", "> 42 µM (inactive)"),
    ("c1ccc(-c2cn3c(nc4ccccc43)c(-c3ccccc3)n2)cc1", "RXF 393", "> 38 µM (inactive)"),
    ("CCN1CC2=C(NC(=S)NC2c2ccc(Cl)cc2)/C(=C/c2ccc(Cl)cc2)C1 (stereo not drawn)", "RXF 393", "> 100 µM (inactive)"),
    ("C[C@@H]1[C@H](c2ccccc2)O[B-]2(c3ccc(Br)cc3)OC(=O)C[N+]12C (stereo partly drawn)", "RXF 393", "26.5 µM (inactive)"),
    ("CCOC(=O)C1CCC(=O)N1C(=O)c1ccccc1Cl (stereo not drawn)", "RXF 393", "> 100 µM (inactive)"),
    ("C=CCCCCCCCCC(=O)NS(=O)(=O)c1ccccc1", "RXF 393", "> 100 µM (inactive)"),
    ("O=C(NC12CC3CC(CC(C3)C1)C2)C(=O)c1c[nH]c2ccc([N+](=O)[O-])cc12", "RXF 393", "21.1 µM (inactive)"),
    ("CCCCOC(=O)NC(Nc1ccc(S(=O)(=O)Nc2ccc(OC)nn2)cc1)(C(F)(F)F)C(F)(F)F", "RXF 393", "> 100 µM (inactive)"),
    ("Cc1ccn2c(c1)nc1nc3ccccc3nc12", "RXF 393", "> 100 µM (inactive)"),
    ("Cc1ccc(C(=O)/C=C(O)/C(O)=C/C(=O)c2ccc(C)cc2C)c(C)c1", "RXF 393", "2.02 µM (inactive)"),
    ("Cc1cc(N)c2ccccc2[n+]1CCCCCCCCCC[n+]1c(C)cc(N)c2ccccc21 [DEQUALINIUM CHLORIDE]", "RXF 393", "10.4 µM (inactive)"),
    ("COc1ccc(C(=O)c2sc(Nc3ccccc3)nc2N)cc1", "RXF 393", "13.4 µM (inactive)"),
    ("CC(C(=O)c1ccccc1)C1(O)C(=O)Nc2ccccc21 (stereo not drawn)", "RXF 393", "> 100 µM (inactive)"),
    ("COc1cc(-c2cccs2)sc1-c1cccs1", "RXF 393", "21.8 µM (inactive)"),
    ("O=C(Cc1ccc(Cl)c(Cl)c1)N(CCc1ccc(Cl)c(Cl)c1)CCN1CCCC1", "RXF 393", "1.71 µM (inactive)"),
    ("CN(C)CCNC(=O)c1cccc2[nH]c(-c3ccc(Cl)cc3)nc12", "RXF 393", "8.57 µM (inactive)"),
    ("C=CCOC1=C(OCC=C)C(C2COC(C)(C)O2)OC1=O (stereo not drawn)", "RXF 393", "> 100 µM (inactive)"),
    ("COC(=O)C(Cc1ccc(Oc2cc(CC(NC(=O)c3ccccc3)C(=O)OC)ccc2OC)cc1)NC(=O)c1ccccc1 (stereo not drawn)", "RXF 393", "14.7 µM (inactive)"),
]
